B1: Ankyrin-2, residues 3571 to 3650; numbered along this chain, Q01484 (parent)
chain: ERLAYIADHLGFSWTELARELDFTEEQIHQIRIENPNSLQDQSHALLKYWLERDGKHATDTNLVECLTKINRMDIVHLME

Variants of: B1
Experiment: abundance fitness (aPCA) (normalised: wild type 0, dead -1); higher = more abundant; growth selection in yeast, the domain comes from the species named
Conditions: Homo sapiens
Overview of reported abundance fitness across a group of variants:
Answer as a number with no unit attached.

Answered examples (6):
R32F
-0.088
R2V
0.024
F12C
-0.04
F23L
-0.066
P36L
-0.081
I28G
-0.634

Quick check: abundance fitness of H29C ?
-0.07

Please give the result for W50A too.
0.003

Please give the result for K56C too.
0.067

Please give the result for N35W too.
-0.049

Please give the result for S43V too.
-0.25
